system: CHO cells; experiment: CHO cell cytotoxicity assay in 1536-well format (ATP content counter-screen); format: cell-based, Chinese hamster; settings: percent reduction in ATP levels compared with 38.3 mM camptothecin at maximal compound concentration
property: CHO Efficacy

mol | result
N#Cc1cc([N+](=O)[O-])c2sc(C(N)=O)[n+]([O-])c2c1 | 32.2%
NC(=O)c1cc(N2CC2)c([N+](=O)[O-])cc1[N+](=O)[O-] | −16.9%
O=[N+]([O-])c1ccc([As](=O)(O)O)cc1 | −13.5%
O=[N+]([O-])c1ccc(/C=N/O)o1 | −50.3%

---

tested on: G. lamblia GS isolate; assay: ATP content assay against G. lamblia GS isolate; type: cell-based, Giardia lamblia; conditions: G. lamblia GS isolate; purchased powder samples; read-out: ATP Content IC50
pIC50: −log10 of the molar value.

compound | pIC50
O=[N+]([O-])c1ccc([As](=O)(O)O)cc1 [Nitarsone] | 6.05
N#Cc1cc([N+](=O)[O-])c2sc(C(N)=O)[n+]([O-])c2c1 [BTO-1] | 5.70
